- assay.protocol: MultiTox-Fluor Cytotoxicity Assay - LYMP1-003 - Live Cells (AID 962);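 note: cells exposed to compound for 16 hours at 37 °C; cytotoxic hits lower the live-cell protease signal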
- measurement.conditions: LYMP1-003 lymphoblastoid cells, MultiTox-Fluor live-cell protease fluorescence; series mostly up to 92.2 µM
Active and inactive are the calls of the source. Calls come from the whole dose curve; as a rule, active = well fitted cell-killing curve with a large enough effect; inconclusive = small, poorly fitted or top-dose-only effect; inactive = flat fitted curve, though single readings scatter.
readout.name: outcome

C=Cc1ccccn1; inactive
CC(C)=CCC/C(C)=C/C=O; inactive
O=C1CCC(=O)O1; inactive
O=[N+]([O-])c1cc(C(F)(F)F)ccc1Cl; inactive
Cc1ccc(S(=O)(=O)NC2CCCCC2)cc1; inactive
Cc1ccc2oc(=O)ccc2c1; inactive
CN(C)CCCCl; inactive
C/C(C=O)=C/c1ccccc1; inactive
O=Cc1ccc(CO)o1; inactive
ClCCl; inactive
COc1cccc2sc(N)nc12; inactive
Cc1cccc([N+](=O)[O-])c1C(=O)O; inactive
Cc1ccccc1C(=O)O; inactive
CCCCC/C=C/C=C/C=O; inactive
C=C(C)C(=O)OC; inactive
COC(=O)c1ccccc1; inactive
Cc1ccc(C)o1; inactive
